Consider the following binders and their measured pKd readings.
target: T1, QCD-32g58 LMW SLP (low-molecular-weight subunit of the QCD-32g58 surface layer protein) (Clostridioides difficile QCD-32g58 …, UniProt A0A9R0BMB3, strain); assay: SPR; Biacore 3000; SEC-purified QCD-32g58 LMW SLP subunit amine-coupled to a CM5 chip; single-concentration screen, 200 nM VHH; 25 °C, 10 mM HEPES pH 7.4, 150 mM NaCl, 3 mM EDTA, 0.005 % P20; details: both partners purified
T1 construct: low-molecular-weight (LMW) subunit of the surface layer protein, cut from the precursor SlpA by Cwp84, C. difficile strain QCD-32g58 (ribotype 027); predicted mass 33.9 kDa; also called QCD-32g58 SLP LMW subunit; LMW subunit; source: purified from C. difficile QCD-32g58 (low-pH glycine extraction, minor SEC peak at about 15 ml); in the Western blot the LMW band of the extracted SLPs
pKd field: float, defined as -log10 of concentration (mol/L).

>  <binder>
SLP_VHH49 (VHH, From an immune llama phage display library panned on QCD-32g58 SLP; source: monomeric SEC fractions for SPR; not shown: His6, C-terminal, kept) VHH: QVKLEESGGGLVQAGGSLRLSCAASEGAFSDALSRHAAGWFRQAPGKEREFVAAISWNGANTDYKNSVNNRFTISRDTSKNTVYLQMNSLKPEDTAVYYCAAKNEPSWISRIYYRGLEYDYWGQGTQVTVSS

>  <reported_metric>
pKd

>  <result_value>
7.70

$$$$

Consider the additional binder presented here.
query: GET /values?readout=pKd&item= SLP_VHH22 (VHH, From an immune llama phage display library panned on QCD-32g58 SLP; source: monomeric SEC fractions for SPR; not shown: His6, C-terminal, kept) VHH: QVQLVESGGGLVQPGGSLRLSCAASGFTLDSYAIGWFRQAPGKEHEGISCISSNGGSTYYTDSVKGRFTISRDNAKNTVYLQMNSLESEDSAVYYCATVRRCSSLDMALGALATRTKGYDYWGQGTQVTVSS
result: 8.10
